Assay method text: in vivo
Applied conditions: dog, iv, 5 mg/kg
Metric: clearance (mL/min/kg)
Report the figure in mL/min/kg without appending any unit label.

[in] Assign clearance to the following record: CN1C(=O)N(c2cc(Cl)cc(Cl)c2)C(=O)[C@]12CN(Cc1cc(C(=O)O)cs1)C[C@H]2c1ccc(C#N)cc1
[out] 3.6

* * *

Assay method text: in vivo
Applied conditions: dog, po, 10 mg/kg
Metric: bioavailability

[in] Identify the reported bioavailability for the following entry. CN1C(=O)N(c2cc(Cl)cc(Cl)c2)C(=O)[C@]12CN(Cc1cc(C(=O)O)cs1)C[C@H]2c1ccc(C#N)cc1
[out] 100%
